This collection of values is drawn from PubChem BioAssay (Tox21).

Assay: qHTS assay to identify small molecule agonists of the AP-1 signaling pathway - cell viability counter screen (AID 1159525); note: nearly all actives have a fitted effect of over 55% in size
Settings: ME-180 (cervical carcinoma) AP-1-bla cells viability, ATP luminescence, 5 h; series mostly up to 76.8 µM
Results filed as inconclusive are left out. Activity calls are given as the source filed them. Calls come from the whole dose curve.
Respond only with the outcome that fits, drawn from Yes = active, No = inactive

• Cc1cc(C(C)(C)c2ccc(O)c(C)c2)ccc1O = No
• CCN(CC)C(=O)Cl = No
• Cc1ccc(N(SC(F)(Cl)Cl)S(=O)(=O)N(C)C)cc1 = Yes
• COc1cc(OC)c(OC)cc1C=O = No
• O=C(c1ccccc1)C(Cl)Cl = No
• O=C(Nc1ccccc1-c1ccc(Cl)cc1)c1cccnc1Cl = No

Recorded test call requested for C[C@]12CC[C@@H](O)C[C@@H]1CC[C@@H]1[C@@H]2CC[C@]2(C)C(=O)CC[C@@H]12 Yes

----------
Test: qHTS assay for identifying genotoxic compounds that show differential cytotoxicity against isogenic chicken DT40 cell lines with known DNA damage response pathways - Rev3 mutant cell line (AID 743014); note: nearly all actives have a fitted effect of over 55% in size; note: potency is the fitted concentration of half-maximal effect
Settings: chicken DT40 Rev3-/- viability, CellTiter-Glo, 40 h; series mostly up to 68.4 µM
Inconclusive results are not listed. Activity calls are given as the source filed them. The call rests on the fitted dose curve; in most records, active means well fitted cell-killing curve with a large enough effect in the repeat runs; inconclusive means weak or mixed curves, or effect the other way; inactive means no such curve, though single readings can be large or run the other way.
METRIC NAME: Potency

Below: 10 molecules and their reported Potency.
• CCOC(=O)C1(c2ccccc2)CCCN(C)CC1 (stereo not given) = inactive
• CC(=O)OO = inactive
• C[C@@H](CO)NC(=O)[C@@H]1C=C2c3cccc4[nH]cc(c34)C[C@H]2N(C)C1 = inactive
• O=C(Nc1ccccc1-c1ccc(Cl)cc1)c1cccnc1Cl = 67.4 µM (active)
• COc1ccc(OC)c([C@@H](O)[C@H](C)N)c1 = inactive
• CNC(=O)OCC[N+](C)(C)C = inactive
• O=C1Nc2ccc(Cl)cc2C(c2ccccc2Cl)=NC1O (stereo not given) = inactive
• CN[C@H]1C[C@@H](N)[C@H](O)[C@@H](O[C@@H]2O[C@H](CO)[C@H](O)[C@@H]3OC4(O[C@H]23)O[C@H](C(N)CO)[C@H](O)[C@H](O)[C@H]4O)[C@@H]1O (stereo not given in full) = inactive
• CC(C)C[C@H](CN)CC(=O)O = inactive
• CC(N)Cc1ccc(O)cc1 (stereo not given) = inactive

Give a short answer stating reported Potency for CCNC1(c2cccs2)CCCCC1=O (stereo not given) . inactive

Give a short answer stating reported Potency for CN1C(=O)CC(=O)N(c2ccccc2)c2cc(Cl)ccc21 . inactive

Give a short answer stating reported Potency for COC1=CC=C2[C@H]3Cc4ccc(OC)c5c4[C@@]2(CCN3C)[C@H]1O5 . inactive

Give a short answer stating reported Potency for CC(=O)OCC(=O)[C@H]1CC[C@H]2[C@@H]3CC[C@H]4C[C@H](O)CC[C@]4(C)[C@H]3C(=O)C[C@]12C . inactive

Give a short answer stating reported Potency for [2H]C([2H])([2H])[C@H](N)Cc1ccccc1 . inactive

----------
Test: qHTS assay to test for compound auto fluorescence at 460 nm (blue) in HepG2 cells (AID 720687)
Settings: autofluorescence 405/460 nm, 1 h; series mostly up to 46 µM
The source made the active and inactive calls. The call rests on the fitted dose curve; in most records, active means well fitted curve in the direction sought with a large enough effect in the repeat runs; inconclusive means weak or mixed curves; inactive means flat fitted curve, though single readings scatter.
Respond only with the outcome that fits, drawn from active, inactive

- C[C@@H]([C@H](O)c1ccccc1)N(C)C: inactive
- CCCCCCC(=O)O[C@H]1CC[C@H]2[C@@H]3CC[C@H]4CC(=O)C=C(C)[C@]4(C)[C@H]3CC[C@]12C: inactive
- COc1cc(OC)c(OC)cc1C=O: inactive
- COC([CH2][Hg])CNC(=O)c1ccccc1OCC(=O)O (configuration not stated): inactive
- CCCSc1cc(OC)c(CCN)cc1OC: inactive

Recorded test call requested for CC1COC(Cn2cncn2)(c2ccc(Oc3ccc(Cl)cc3)cc2Cl)O1 (configuration not stated) inactive

Recorded test call requested for O=C1Nc2ccc(Cl)cc2C(c2ccccc2Cl)=NC1O (configuration not stated) inactive

Recorded test call requested for O=C1CCCCC1CN1CCCCC1 (configuration not stated) inactive

Recorded test call requested for CCC(=O)O[C@@](Cc1ccccc1)(c1ccccc1)[C@@H](C)CN(C)C inactive

Recorded test call requested for C[C@@H](N)C(=O)c1ccccc1 inactive

Recorded test call requested for [2H]C([2H])([2H])[C@H](N)Cc1ccccc1 inactive

Recorded test call requested for CCC(=O)O[C@]1(c2ccccc2)CCN(C)C[C@H]1C inactive
